target: pooled human IgG (human IgG1, 2, 3 and 4)
Kindly state Enzyme Activity Endpoint Assay (purified): Fc for each of the entries shown.
One number for each entry, in ng/µL.

**Query** Please look up its Enzyme Activity Endpoint Assay (purified): Fc: PRT-390 (protein) MVTSVWTKGVTPPTNFTYGEDVLHAPYVANQGWYDITKTFNGKDDLLCGAATAGNMLHWWFDQNKEQIENYLKKHPEKQKINFNGEQLFDVKEAIDTKDSQLDSKLFEYFKEKAFPYLSTKHLGVFPDHVIDMFINGYRLSLTNHGPTPVKRGSKDPRGGIFDAVFTRGDQSKLLTNRHDFKEKTLKEISDLIKQELTEGKALGISHTYANVRINHVINLWGADFDAEGNLEAIYVTDSDSNASIGMKKYFVGVNSNGKVAISAKEIEEDNIGAQVLGLFTLSTGQDIWNQTN
**Result** 371

New cases:
**Query** Please look up its Enzyme Activity Endpoint Assay (purified): Fc: PRT-598 (protein) MANQEIRYSEETPSTITSVWTKGVTPPTDFIQNEDVLHAPYIANQGWYDITKTFNGKDDLLCGAATAGNMLHWWFDQNKEQIENYLKKHPEKQKINFNGEQMFDVKEAIDTKDSQTDSALFEYFKDKAFPYLSTKHLGVFPDHVIDMFINGYRLSLTNHGPTPVKRGTKDPRGGIFDAVFTRGDQSKLLTSRHDFKEKTLNEISDLIKQELTEGKALGLSHTYANVRINHVINLWGADFNAEGNLEAIYVTDSDSNASIGMKKYFVGVNSAGKVAISAKEIEGDNIGAQVLGLFTLSTGQDIWNQTNLEHHHHHH
**Result** 172

Measured values drawn from patent US20250027068 for this set.
